- System: 633275-114-R-J1-PDC complex spheroids, viability
- test.description: Anticancer human tumor 633275-114-R-J1-PDC patient-derived endometrial adenocarcinoma cell line growth inhibition [GQUAD]
- run.conditions: second compound 1 µM; first compound 10 µM; active compounds read low
- Source text: DNA G-quadruplex Stabilizer Agents in Combinations in Complex Spheroids A high-throughput screen of multi-cell type tumor spheroids was designed to identify active combinations of DNA G-quadruplex stabilizer agents and targeted small molecules. […] Compounds. […] If the clinical Cmax for an agent had not been determined, the highest concentration tested was 10 microM. […]
Documented viability, T/C across a set of compounds
// note: answer is a bare numeric in %

{"compound": "CCCS(=O)(=O)Nc1ccc(F)c(C(=O)c2c[nH]c3ncc(-c4ccc(Cl)cc4)cc23)c1F + Cc1cnc(CNC(=O)c2c(=O)c3ccc(N4CCCN(C)CC4)nc3n3c2sc2ccccc23)cn1", "target.desc": "633275-114-R-J1-PDC complex spheroids, viability", "assay.value": 13.6}
{"compound": "COc1ncnc(C2CC2)c1-c1ncc2cnn(Cc3ccc(-c4nc(C(F)(F)F)cn4C(C)C)cc3)c2n1 + Cc1[nH]c2ccc(F)cc2c1-c1nc2c3cccnc3c3ncccc3c2[nH]1", "target.desc": "633275-114-R-J1-PDC complex spheroids, viability", "assay.value": 87.1}
{"compound": "COc1cc(C2c3cc4c(cc3C(OC3OC5COC(C)OC5C(O)C3O)C3COC(=O)C23)OCO4)cc(OC)c1O (centres undefined) + Cc1cnc(CNC(=O)c2c(=O)c3ccc(N4CCCN(C)CC4)nc3n3c2sc2ccccc23)cn1", "target.desc": "633275-114-R-J1-PDC complex spheroids, viability", "assay.value": 28.4}

Moving on to another compound below.
Input line: Form field: viability, T/C recorded for COc1cc(C2c3cc4c(cc3C(OC3OC5COC(C)OC5C(O)C3O)C3COC(=O)C23)OCO4)cc(OC)c1O (centres undefined) + CN(C)c1ccc(Nc2c3ccc(NC(=O)CCN4CCCC4)cc3nc3cc(NC(=O)CCN4CCCC4)ccc23)cc1 with 633275-114-R-J1-PDC complex spheroids, viability (enter value)
Output line: 26.7

----------
- System: 633275-114-R-J1-PDC complex spheroids, viability
- test.description: Anticancer human tumor 633275-114-R-J1-PDC cell line growth inhibition [GQUAD];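 also: spheroids exposed to the agents for seven days; percent of DMSO vehicle control viability which is 100%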
- run.conditions: second compound 3.16 µM; first compound 0.00999 µM; active compounds read low
Documented viability, T/C across a set of compounds

{"compound": "Cc1[nH]c2ccccc2c1CCNCc1ccc(/C=C/C(=O)NO)cc1 + CN(C)c1ccc(Nc2c3ccc(NC(=O)CCN4CCCC4)cc3nc3cc(NC(=O)CCN4CCCC4)ccc23)cc1", "viability, T/C": "61.2%"}
{"compound": "CC[C@@]1(O)C(=O)OCc2c1cc1n(c2=O)Cc2cc3c(CN(C)C)c(O)ccc3nc2-1 + Cc1[nH]c2ccc(F)cc2c1-c1nc2c3cccnc3c3ncccc3c2[nH]1", "viability, T/C": "69.1%"}
{"compound": "CCc1c2c(nc3ccc(O)cc13)-c1cc3c(c(=O)n1C2)COC(=O)[C@]3(O)CC + CN(C)c1ccc(Nc2c3ccc(NC(=O)CCN4CCCC4)cc3nc3cc(NC(=O)CCN4CCCC4)ccc23)cc1", "viability, T/C": "34.9%"}
{"compound": "CCc1c2c(nc3ccc(O)cc13)-c1cc3c(c(=O)n1C2)COC(=O)[C@]3(O)CC + Cc1cnc(CNC(=O)c2c(=O)c3ccc(N4CCCN(C)CC4)nc3n3c2sc2ccccc23)cn1", "viability, T/C": "28.3%"}
{"compound": "Cc1[nH]c2ccccc2c1CCNCc1ccc(/C=C/C(=O)NO)cc1 + Cc1cnc(CNC(=O)c2c(=O)c3ccc(N4CCCN(C)CC4)nc3n3c2sc2ccccc23)cn1", "viability, T/C": "31.9%"}

Moving on to another compound below.
Input line: Form field: viability, T/C recorded for Cc1[nH]c2ccccc2c1CCNCc1ccc(/C=C/C(=O)NO)cc1 + Cc1[nH]c2ccc(F)cc2c1-c1nc2c3cccnc3c3ncccc3c2[nH]1 with 633275-114-R-J1-PDC complex spheroids, viability (enter value)
Output line: 53.6%

Provenance of the data: PubChem BioAssay AID2060505
